Method: Cytotoxicity against human iPSC-derived neurons assessed as effect on cell-rounding
Assay type: tissue-based
Condition Summary: induced pluripotent stem cell-derived neuron
Attribute Measured: Activity

In the examples that follow, each entry is paired with its recorded Activity.
CS(=O)(=O)SCCCCCCCN(O)C(=O)/C=C/c1ccc(Cl)cc1Cl: Non-Toxic
CS(=O)(=O)SCCCCCCNC(=O)CC(CC(=O)NO)c1ccc(Cl)cc1Cl (configuration not stated): Toxic
CS(=O)(=O)SCCCCNC(=O)CC(CC(=O)NO)c1ccc(Cl)cc1Cl (configuration not stated): Toxic
CS(=O)(=O)SCCCCCN(O)C(=O)/C=C/c1ccc(Cl)cc1Cl: Non-Toxic

Please fill in: Activity reported for CS(=O)(=O)SCCCCCNC(=O)CC(CC(=O)NO)c1ccc(Cl)cc1Cl (configuration not stated) = Toxic

get_value(item= CS(=O)(=O)SCCCCCCN(O)C(=O)/C=C/c1ccc(Cl)cc1Cl , readout=Activity) returns Non-Toxic

For this compound ( CS(=O)(=O)SCCCNC(=O)CC(CC(=O)NO)c1ccc(Cl)cc1Cl (configuration not stated) ), measured Activity is Toxic

All figures here come from ChEMBL document CHEMBL4665791.
